System: Sobe
Assay: plant injury after spraying emerged plants (Table D)
Assay type: in vivo
Parameters: scale not given here
Conditions: 5.6050 kg/ha
Answer each item with its documented plant injury rating, Sobe.
Numbers only.

Consider the following illustrative entries.
{"columns": ["compound", "plant injury rating, Sobe"],
 "data": [
  ["COC(=O)c1c(OC)nc(C(F)(F)F)c(C(=O)NCCCBr)c1CC(C)C [Compound 97]", 0],
  ["COC(=O)c1c(OC)nc(C(F)(F)F)c(C(=O)SC)c1C1CCC1 [Compound 137]", 2],
  ["COC(=O)c1c(OC)nc(C(F)(F)Cl)c(C(=O)OC)c1CC(C)C [Compound 30]", 1]
]}

Would you mind listing plant injury rating, Sobe for each of the following compounds?
1. COC(=O)c1c(OC)nc(C(F)(F)F)c(C2SCCS2)c1CC(C)C [Compound 93]
2. COC(=O)c1c(OC)nc(C(F)(F)F)c(C(=O)n2ccc(F)n2)c1C1CCC1 [Compound 140]
3. COC(=O)c1c(OC)nc(C(F)(F)F)c(C(=O)n2cccn2)c1CC1CC1 [Compound 116]
4. COC(=O)c1c(OC)nc(C(F)(F)F)c(C(=O)Cl)c1CC1CC1 [Compound 113]
5. COC(=O)c1c(OC)nc(C(F)(F)F)c(C2=NCCCS2)c1CC(C)C [Compound 98]

1: 3; 2: 2; 3: 2; 4: 1; 5: 2

Give plant injury rating, Sobe for this entry on Sobe: COC(=O)c1c(OC)nc(C(F)(F)F)c(-c2nnc(C)o2)c1CC(C)C [Compound 103] 2

###

System: Mogl
Experiment: plant injury after spraying emerged plants (Table D)
Assay type: in vivo
Set-up: scale not given here
Settings: 5.6050 kg/ha
What plant injury rating, Mogl was measured for each of the following?
Give bare numbers.

Some molecules with known plant injury rating, Mogl results, for comparison:
{"columns": ["molecule", "endpoint_name", "recorded_number"],
 "data": [
  ["COC(=O)c1c(OC)nc(C(F)(F)F)c(C(=O)NCCCBr)c1CC(C)C [Compound 97]", "plant injury rating, Mogl", 0],
  ["COC(=O)c1c(OC)nc(C(F)(F)F)c(N=CSC)c1CC(C)C [Compound 77]", "plant injury rating, Mogl", 2],
  ["COC(=O)c1c(OC)nc(C(F)(F)Cl)c(C(=O)OC)c1CC(C)C [Compound 30]", "plant injury rating, Mogl", 1],
  ["COC(=O)c1c(OC)nc(C(F)(F)F)c(C(=O)n2cccn2)c1CC1CC1 [Compound 116]", "plant injury rating, Mogl", 2],
  ["COC(=O)c1c(OC)nc(C(F)(F)F)c(C(=O)Cl)c1CC1CC1 [Compound 113]", "plant injury rating, Mogl", 1]
]}

Hello, I would appreciate it if you could give plant injury rating, Mogl for each entry below.
1. COC(=O)c1c(OC)nc(C(F)(F)F)c(-c2nnc(C)o2)c1CC(C)C [Compound 103]
2. COC(=O)c1c(OC)nc(C(F)(F)F)c(C2SCCS2)c1CC(C)C [Compound 93]
3. COC(=O)c1c(OC)nc(C(F)(F)F)c(C(=O)n2ccc(F)n2)c1C1CCC1 [Compound 140]
4. COC(=O)c1c(OC)nc(C(F)(F)F)c(C(=O)SC)c1C1CCC1 [Compound 137]

[2, 3, 2, 2]

Identify measured plant injury rating, Mogl associated with COC(=O)c1c(OC)nc(C(F)(F)F)c(C2=NCCCS2)c1CC(C)C [Compound 98] 2
